# System: Human immunodeficiency virus 1
# RUN_DESCRIPTION: In vitro antiviral activity against HIV-1 IIIB in C8166 (human CD4) cells.
# Type: functional, organism-based
# CONDITION_SUMMARY: Human immunodeficiency virus 1, C8166
ASSAY_METRIC: EC50 (µM)
Output spec: scalar in µM, unitless text.

Examples with answers:
Req: Name the reported EC50 value associated with the compound CCOC(=O)c1cn(C)c2cc(N3CCN(c4ccccn4)CC3)c(N)cc2c1=O
Resp: 37

Req: Name the reported EC50 value associated with the compound Cc1c(N2CCN(c3ccccn3)CC2)c(N)cc2c(=O)c(C(=O)O)cn(C)c12
Resp: 7.5

Req: Name the reported EC50 value associated with the compound CC(C)(C)n1cc(C(=O)O)c(=O)c2cc(N)c(N3CCc4ccccc4C3)cc21
Resp: 40

More entries:
Req: Name the reported EC50 value associated with the compound Cc1c(N2CCc3ccccc3C2)c(N)cc2c(=O)c(C(=O)O)cn(C3CC3)c12
Resp: 80

Req: Name the reported EC50 value associated with the compound O=C(O)c1cn(C2CC2)c2cc(N3CCN(c4ccccn4)CC3)c(F)cc2c1=O
Resp: 5

Req: Name the reported EC50 value associated with the compound CN1CCN(c2c(F)cc3c(=O)c(C(=O)O)cn4c3c2SCC4)CC1
Resp: 200

Req: Name the reported EC50 value associated with the compound CC(C)(C)n1cc(C(=O)O)c(=O)c2cc(N)c(N3CCN(c4ncccn4)CC3)cc21
Resp: 9.48

Req: Name the reported EC50 value associated with the compound CNc1cc2c(=O)c(C(=O)O)cn(C)c2cc1N1CCN(c2ccccn2)CC1
Resp: 3.5

Req: Name the reported EC50 value associated with the compound CC(C)(C)n1cc(C(=O)O)c(=O)c2cc(N)c(N3CCN(c4ccccn4)CC3)cc21
Resp: 2

---

# System: Human immunodeficiency virus 1
# RUN_DESCRIPTION: In vitro antiviral activity against HIV-1 IIIB in C8166 (human CD4) cells.
# Format: functional, organism-based
# CONDITION_SUMMARY: Human immunodeficiency virus 1, C8166
ASSAY_METRIC: EC50

Req: Name the reported EC50 value associated with the compound CC(C)(C)n1cc(C(=O)O)c(=O)c2cc(N)c(N3CCN(c4ccc(F)cc4)CC3)cc21
Resp: 8.44 µM

Req: Name the reported EC50 value associated with the compound O=C(O)c1cn(C2CC2)c2cc(N3CCNCC3)c(F)cc2c1=O
Resp: 100 µM

Req: Name the reported EC50 value associated with the compound CCOC(=O)c1cn(C(C)(C)C)c2cc(N3CCN(c4ccccn4)CC3)c(N)cc2c1=O
Resp: 51.2 µM

Req: Name the reported EC50 value associated with the compound CC(C)(C)n1cc(C(=O)O)c(=O)c2cc(F)c(N3CCN(c4ccccn4)CC3)cc21
Resp: 7.5 µM

Req: Name the reported EC50 value associated with the compound Cn1cc(C(=O)O)c(=O)c2cc(N)c(N3CCN(c4ccccn4)CC3)cc21
Resp: 0.1 µM

Req: Name the reported EC50 value associated with the compound Cc1cn([C@H]2C[C@H](N=[N+]=[N-])[C@@H](CO)O2)c(=O)[nH]c1=O
Resp: 0.02 µM

Now, please, on to the next compound.
Req: Name the reported EC50 value associated with the compound COc1ccc(N2CCN(c3cc4c(cc3N)c(=O)c(C(=O)O)cn4C(C)(C)C)CC2)cc1
Resp: 9.5 µM

---

# Tested on: C8166
# RUN_DESCRIPTION: Selectivity index in HIV-1 infected C8166 (human CD4) cells.
# Assay type: functional
ASSAY_METRIC: SI

Req: Name the reported SI value associated with the compound Cc1cn([C@H]2C[C@H](N=[N+]=[N-])[C@@H](CO)O2)c(=O)[nH]c1=O [ZIDOVUDINE]
Resp: 25000

Req: Name the reported SI value associated with the compound CC(C)(C)n1cc(C(=O)O)c(=O)c2cc(N)c(N3CCN(c4ccccn4)CC3)cc21
Resp: 4

Req: Name the reported SI value associated with the compound CCOC(=O)c1cn(C)c2cc(N3CCN(c4ccccn4)CC3)c(N)cc2c1=O
Resp: 1.5

Req: Name the reported SI value associated with the compound CN1CCN(c2c(F)cc3c(=O)c(C(=O)O)cn4c3c2SCC4)CC1 [RUFLOXACIN]
Resp: 2

More entries:
Req: Name the reported SI value associated with the compound CCOC(=O)c1cn(C(C)(C)C)c2cc(N3CCN(c4ccccn4)CC3)c(N)cc2c1=O
Resp: 1.5

Req: Name the reported SI value associated with the compound CC(C)(C)n1cc(C(=O)O)c(=O)c2cc(F)c(N3CCN(c4ccccn4)CC3)cc21
Resp: 5

Req: Name the reported SI value associated with the compound Cc1c(N2CCN(c3ccccn3)CC2)c(N)cc2c(=O)c(C(=O)O)cn(C)c12
Resp: 6

Req: Name the reported SI value associated with the compound Nc1cc2c(=O)c(C(=O)O)cn(N3CCN(c4ccccn4)CC3)c2cc1Cl
Resp: >2

Req: Name the reported SI value associated with the compound CC(C)(C)n1cc(C(=O)O)c(=O)c2cc(N)c(N3CCc4ccccc4C3)cc21
Resp: 2

Req: Name the reported SI value associated with the compound CNc1cc2c(=O)c(C(=O)O)cn(C)c2cc1N1CCN(c2ccccn2)CC1
Resp: 5

Req: Name the reported SI value associated with the compound O=C(O)c1cn(C2CC2)c2cc(N3CCNCC3)c(F)cc2c1=O [CIPROFLOXACIN]
Resp: 1.6

Req: Name the reported SI value associated with the compound Cn1cc(C(=O)O)c(=O)c2cc(F)c(N3CCN(c4ccccn4)CC3)cc21
Resp: 5

Req: Name the reported SI value associated with the compound Cn1cc(C(=O)O)c(=O)c2cc(N)c(N3CCN(c4ccccn4)CC3)cc21
Resp: 70

Req: Name the reported SI value associated with the compound Cc1c(N2CCC(C)CC2)c(N)cc2c(=O)c(C(=O)O)cn(C3CC3)c12
Resp: 4

---

# System: C8166
# RUN_DESCRIPTION: Selectivity index in HIV-1 infected C8166 (human CD4) cells.
# Type: functional
ASSAY_METRIC: SI
Number only, please.

Examples with answers:
Req: Name the reported SI value associated with the molecule CC(C)(C)n1cc(C(=O)O)c(=O)c2cc(N)c(N3CCN(c4ncccn4)CC3)cc21
Resp: 4

Req: Name the reported SI value associated with the molecule CC(C)(C)n1cc(C(=O)O)c(=O)c2cc(N)c(N3CCN(c4ccc(F)cc4)CC3)cc21
Resp: 1.2

Req: Name the reported SI value associated with the molecule COc1ccc(N2CCN(c3cc4c(cc3N)c(=O)c(C(=O)O)cn4C(C)(C)C)CC2)cc1
Resp: 1.4

Req: Name the reported SI value associated with the molecule Cc1c(N2CCc3ccccc3C2)c(N)cc2c(=O)c(C(=O)O)cn(C3CC3)c12
Resp: 5

Now, please, on to the next molecule.
Req: Name the reported SI value associated with the molecule O=C(O)c1cn(C2CC2)c2cc(N3CCN(c4ccccn4)CC3)c(F)cc2c1=O
Resp: 13
